Target: V1a (Homo sapiens)
Experiment: Human vasopression V1a receptor binding assay
Design: host or cells: CHO cells (hV1a cell line), whole adherent cells
Conditions: hV1a cell line (CHO), 1 nM 3H-AVP; Table 17; read-out: V1a Binding Affinity (IC50 (nM))
Measurement Kind: IC50

stdin: What value of IC50 has been reported for the following compound? COc1ccc(C2(NC(=O)[C@H](CCC(=O)N3CCN(C4CCCCC4)CC3)N3C(=O)[C@@H](N4C(=O)OC[C@@H]4c4ccccc4)[C@H]3/C=C/c3ccccc3)CC2)cc1 [Example 221AO]
stdout: ~100 nM

---

Molecular target: V1a (Homo sapiens, UniProt P37288)
Sequence (P37288 whole entry): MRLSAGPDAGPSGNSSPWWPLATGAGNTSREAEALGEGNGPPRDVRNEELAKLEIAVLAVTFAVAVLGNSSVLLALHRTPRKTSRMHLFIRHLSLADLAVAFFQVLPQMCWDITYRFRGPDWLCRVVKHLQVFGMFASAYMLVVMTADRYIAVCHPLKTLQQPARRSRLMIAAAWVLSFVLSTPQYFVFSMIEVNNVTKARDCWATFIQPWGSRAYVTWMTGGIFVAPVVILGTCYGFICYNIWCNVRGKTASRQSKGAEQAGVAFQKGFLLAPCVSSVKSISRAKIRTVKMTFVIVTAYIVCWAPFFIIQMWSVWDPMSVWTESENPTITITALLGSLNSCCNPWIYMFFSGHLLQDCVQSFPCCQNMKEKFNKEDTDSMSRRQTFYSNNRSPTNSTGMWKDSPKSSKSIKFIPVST
Experiment: Human vasopression V1a receptor binding assay
Parameters: host or cells: CHO cells (hV1a cell line), whole adherent cells
Details: hV1a cell line (CHO), 1 nM 3H-AVP; Table 17; read-out: V1a Binding Affinity (IC50 (nM))
# reported IC50; entries follow

Field: example entries. Status: answers known.
O=C(CC[C@@H](C(=O)N[C@@H]1CCCc2ccccc21)N1C(=O)[C@@H](N2C(=O)OC[C@@H]2c2ccccc2)[C@H]1/C=C/c1ccccc1)N[C@@H]1CCN(Cc2ccccc2)C1 [Example 221AD] = ~50 nM
CCN1CCC[C@H]1CNC(=O)CC[C@@H](C(=O)N[C@@H]1CCCc2ccccc21)N1C(=O)[C@@H](N2C(=O)OC[C@@H]2c2ccccc2)[C@H]1/C=C/c1ccccc1 [Example 221AI] = ~50 nM

stdin: What value of IC50 has been reported for the following compound? `O=C(NCc1ccc(Cl)c(C(F)(F)F)c1)[C@H](CCC(=O)N1CCN(C2CCCCC2)CC1)N1C(=O)[C@@H](N2C(=O)OC[C@@H]2c2ccccc2)[C@H]1/C=C/c1ccccc1`
stdout: < 50 nM
